Reference source: paper PMC11240139

Test system: OVCAR-5 (ovarian cancer)
test-details: NCI-60 SRB cytotoxicity screen
Format: cell-based
test-context: Homo sapiens; OVCAR-5, single dose 10 μM; read-out: growth inhibition (GI%)
reported-metric: inhibition at 10 µM

[Q] Look up inhibition at 10 µM for this compound: CCc1cccc2cc(C=CC(=O)c3ccc(F)cc3)c(Cl)nc12 [Compound 3d]
[A] < 10%

[Q] Look up inhibition at 10 µM for this compound: CCc1cccc2cc(C=CC(=O)c3ccc(OC)c(OC)c3)c(Cl)nc12 [Compound 3b]
[A] 12.5%

[Q] Look up inhibition at 10 µM for this compound: CCc1cccc2cc(-c3cc(-c4ccc(F)cc4)[nH]c(=S)c3C#N)c(Cl)nc12 [Compound 5d]
[A] < 10%

[Q] Look up inhibition at 10 µM for this compound: CCc1cccc2cc(C3C=C(c4ccc(F)cc4)NC(=S)N3)c(Cl)nc12 (stereo not drawn) [Compound 6d]
[A] < 10%

[Q] Look up inhibition at 10 µM for this compound: CCc1cccc2cc(C=CC(=O)c3ccc(OC)cc3)c(Cl)nc12 [Compound 3a]
[A] < 10%

[Q] Look up inhibition at 10 µM for this compound: CCc1cccc2cc(-c3cc(-c4ccc(Br)cc4)[nH]c(=O)c3C#N)c(Cl)nc12 [Compound 4e]
[A] < 10%

[Q] Look up inhibition at 10 µM for this compound: CCc1cccc2cc(C=CC(=O)c3ccc(Br)cc3)c(Cl)nc12 [Compound 3e]
[A] < 10%

[Q] Look up inhibition at 10 µM for this compound: CCc1cccc2cc(-c3cc(-c4ccc(F)cc4)[nH]c(=O)c3C#N)c(Cl)nc12 [Compound 4d]
[A] < 10%

[Q] Look up inhibition at 10 µM for this compound: CCc1cccc2cc(C3C=C(c4ccc(Br)cc4)NC(=S)N3)c(Cl)nc12 (stereo not drawn) [Compound 6e]
[A] < 10%

[Q] Look up inhibition at 10 µM for this compound: CCc1cccc2cc(C=CC(=O)c3cc(OC)c(OC)c(OC)c3)c(Cl)nc12 [Compound 3c]
[A] 26.8%

[Q] Look up inhibition at 10 µM for this compound: CCc1cccc2cc(-c3cc(-c4ccc(OC)c(OC)c4)[nH]c(=S)c3C#N)c(Cl)nc12 [Compound 5b]
[A] < 10%

[Q] Look up inhibition at 10 µM for this compound: CCc1cccc2cc(C3C=C(c4ccc(OC)c(OC)c4)NC(=S)N3)c(Cl)nc12 (stereo not drawn) [Compound 6b]
[A] < 10%

====

Provide the recorded melting point for the entries that follow.

[Q] Look up melting point for this molecule: CCc1cccc2cc(-c3cc(-c4ccc(OC)c(OC)c4)[nH]c(=O)c3C#N)c(Cl)nc12
[A] 280 to 282 °C

[Q] Look up melting point for this molecule: CCc1cccc2cc(C=CC(=O)c3ccc(OC)cc3)c(Cl)nc12
[A] 138 to 140 °C

[Q] Look up melting point for this molecule: CCc1cccc2cc(-c3cc(-c4ccc(OC)c(OC)c4)[nH]c(=S)c3C#N)c(Cl)nc12
[A] 280 to 282 °C

[Q] Look up melting point for this molecule: CCc1cccc2cc(-c3cc(-c4ccc(F)cc4)[nH]c(=O)c3C#N)c(Cl)nc12
[A] 260 to 262 °C

[Q] Look up melting point for this molecule: CCc1cccc2cc(-c3cc(-c4cc(OC)c(OC)c(OC)c4)[nH]c(=S)c3C#N)c(Cl)nc12
[A] 279 to 281 °C

[Q] Look up melting point for this molecule: CCc1cccc2cc(C3C=C(c4ccc(OC)c(OC)c4)NC(=S)N3)c(Cl)nc12 (centres unmarked)
[A] 237 to 239 °C

[Q] Look up melting point for this molecule: CCc1cccc2cc(C=CC(=O)c3ccc(OC)c(OC)c3)c(Cl)nc12
[A] 135 to 137 °C

[Q] Look up melting point for this molecule: CCc1cccc2cc(-c3cc(-c4ccc(OC)cc4)[nH]c(=S)c3C#N)c(Cl)nc12
[A] 290 to 292 °C

====

Provide the recorded inhibition at 10 µM for the entries that follow.
System: A549/ATCC (non-small cell lung cancer)
test-details: NCI-60 SRB cytotoxicity screen
Format: cell-based
test-context: Homo sapiens, single dose 10 μM, read-out: growth inhibition (GI%)

[Q] Query inhibition at 10 µM on A549/ATCC (non-small cell lung cancer) for CCc1cccc2cc(-c3cc(-c4ccc(OC)cc4)[nH]c(=O)c3C#N)c(Cl)nc12
[A] < 10%

[Q] Query inhibition at 10 µM on A549/ATCC (non-small cell lung cancer) for CCc1cccc2cc(-c3cc(-c4cc(OC)c(OC)c(OC)c4)[nH]c(=O)c3C#N)c(Cl)nc12
[A] 88.2%

[Q] Query inhibition at 10 µM on A549/ATCC (non-small cell lung cancer) for CCc1cccc2cc(-c3cc(-c4ccc(OC)c(OC)c4)[nH]c(=S)c3C#N)c(Cl)nc12
[A] 19.7%

[Q] Query inhibition at 10 µM on A549/ATCC (non-small cell lung cancer) for CCc1cccc2cc(C=CC(=O)c3ccc(F)cc3)c(Cl)nc12
[A] < 10%

[Q] Query inhibition at 10 µM on A549/ATCC (non-small cell lung cancer) for CCc1cccc2cc(C3C=C(c4ccc(F)cc4)NC(=S)N3)c(Cl)nc12 (stereo not drawn)
[A] < 10%

[Q] Query inhibition at 10 µM on A549/ATCC (non-small cell lung cancer) for CCc1cccc2cc(-c3cc(-c4ccc(Br)cc4)[nH]c(=S)c3C#N)c(Cl)nc12
[A] < 10%

[Q] Query inhibition at 10 µM on A549/ATCC (non-small cell lung cancer) for CCc1cccc2cc(C=CC(=O)c3cc(OC)c(OC)c(OC)c3)c(Cl)nc12
[A] 52.1%

[Q] Query inhibition at 10 µM on A549/ATCC (non-small cell lung cancer) for CCc1cccc2cc(-c3cc(-c4ccc(OC)cc4)[nH]c(=S)c3C#N)c(Cl)nc12
[A] < 10%

[Q] Query inhibition at 10 µM on A549/ATCC (non-small cell lung cancer) for CCc1cccc2cc(C3C=C(c4ccc(Br)cc4)NC(=S)N3)c(Cl)nc12 (stereo not drawn)
[A] < 10%

[Q] Query inhibition at 10 µM on A549/ATCC (non-small cell lung cancer) for CCc1cccc2cc(C3C=C(c4cc(OC)c(OC)c(OC)c4)NC(=S)N3)c(Cl)nc12 (stereo not drawn)
[A] 26.3%

[Q] Query inhibition at 10 µM on A549/ATCC (non-small cell lung cancer) for CCc1cccc2cc(C3C=C(c4ccc(OC)c(OC)c4)NC(=S)N3)c(Cl)nc12 (stereo not drawn)
[A] < 10%

[Q] Query inhibition at 10 µM on A549/ATCC (non-small cell lung cancer) for CCc1cccc2cc(C=CC(=O)c3ccc(Br)cc3)c(Cl)nc12
[A] < 10%

====

Test system: UACC-62 (melanoma)
test-details: NCI-60 SRB cytotoxicity screen
Assay type: cell-based
test-context: Homo sapiens; UACC-62, single dose 10 μM; read-out: growth inhibition (GI%)
Given measured inhibition at 10 µM, output y if it is greater than or equal to 20% and n if not.

[Q] Exam item: decide whether the reported inhibition at 10 µM for CCc1cccc2cc(C3C=C(c4cc(OC)c(OC)c(OC)c4)NC(=S)N3)c(Cl)nc12 (centres unmarked) is at least 20%.
[A] y

[Q] Exam item: decide whether the reported inhibition at 10 µM for CCc1cccc2cc(-c3cc(-c4ccc(Br)cc4)[nH]c(=S)c3C#N)c(Cl)nc12 is at least 20%.
[A] n

[Q] Exam item: decide whether the reported inhibition at 10 µM for CCc1cccc2cc(-c3cc(-c4cc(OC)c(OC)c(OC)c4)[nH]c(=S)c3C#N)c(Cl)nc12 is at least 20%.
[A] y

[Q] Exam item: decide whether the reported inhibition at 10 µM for CCc1cccc2cc(C=CC(=O)c3ccc(OC)c(OC)c3)c(Cl)nc12 is at least 20%.
[A] y

[Q] Exam item: decide whether the reported inhibition at 10 µM for CCc1cccc2cc(-c3cc(-c4ccc(OC)c(OC)c4)[nH]c(=S)c3C#N)c(Cl)nc12 is at least 20%.
[A] n

[Q] Exam item: decide whether the reported inhibition at 10 µM for CCc1cccc2cc(C3C=C(c4ccc(OC)cc4)NC(=S)N3)c(Cl)nc12 (centres unmarked) is at least 20%.
[A] n

[Q] Exam item: decide whether the reported inhibition at 10 µM for CCc1cccc2cc(-c3cc(-c4ccc(F)cc4)[nH]c(=S)c3C#N)c(Cl)nc12 is at least 20%.
[A] y

[Q] Exam item: decide whether the reported inhibition at 10 µM for CCc1cccc2cc(-c3cc(-c4ccc(Br)cc4)[nH]c(=O)c3C#N)c(Cl)nc12 is at least 20%.
[A] n

[Q] Exam item: decide whether the reported inhibition at 10 µM for CCc1cccc2cc(C3C=C(c4ccc(OC)c(OC)c4)NC(=S)N3)c(Cl)nc12 (centres unmarked) is at least 20%.
[A] n

[Q] Exam item: decide whether the reported inhibition at 10 µM for CCc1cccc2cc(C=CC(=O)c3cc(OC)c(OC)c(OC)c3)c(Cl)nc12 is at least 20%.
[A] y

[Q] Exam item: decide whether the reported inhibition at 10 µM for CCc1cccc2cc(-c3cc(-c4ccc(OC)c(OC)c4)[nH]c(=O)c3C#N)c(Cl)nc12 is at least 20%.
[A] n

[Q] Exam item: decide whether the reported inhibition at 10 µM for CCc1cccc2cc(C=CC(=O)c3ccc(Br)cc3)c(Cl)nc12 is at least 20%.
[A] n

[Q] Exam item: decide whether the reported inhibition at 10 µM for CCc1cccc2cc(C=CC(=O)c3ccc(F)cc3)c(Cl)nc12 is at least 20%.
[A] n

[Q] Exam item: decide whether the reported inhibition at 10 µM for CCc1cccc2cc(C=CC(=O)c3ccc(OC)cc3)c(Cl)nc12 is at least 20%.
[A] n

[Q] Exam item: decide whether the reported inhibition at 10 µM for CCc1cccc2cc(-c3cc(-c4ccc(F)cc4)[nH]c(=O)c3C#N)c(Cl)nc12 is at least 20%.
[A] n

[Q] Exam item: decide whether the reported inhibition at 10 µM for CCc1cccc2cc(-c3cc(-c4cc(OC)c(OC)c(OC)c4)[nH]c(=O)c3C#N)c(Cl)nc12 is at least 20%.
[A] y
